Listing of entries alongside the reported PBM binding z-score.
# System: PPARg DBDmut IVT, anti-PPARg (DBD mutation: PPARg1 K132A/R137A, NR concentration 270 nM)
# Experiment notes: PBM binding z-score (relative to random genomic background probes); higher = stronger binding; sequences stand for … in GC…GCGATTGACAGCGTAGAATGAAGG
Response field accepts a number only; no unit should be typed.

Reference set (3 entries):
| Biosequence | PBM binding z-score |
| --- | --- |
| CTCGAAAGGTCGGTTGAGGTGATTATACGGATAA | 0.785 |
| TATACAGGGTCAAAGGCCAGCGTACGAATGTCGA | 0.981 |
| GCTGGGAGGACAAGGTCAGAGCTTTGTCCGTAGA | -1.38 |

Now turn to the next sequence.
Reported PBM binding z-score of `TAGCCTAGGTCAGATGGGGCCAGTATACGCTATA` : -0.361

====

# System: PPARg:RXRa IVT, anti-PPARg (NR concentration 270 nM, RXRa partner concentration 90 nM)
# Experiment notes: PBM binding z-score (relative to random genomic background probes); higher = stronger binding; sequences stand for … in GC…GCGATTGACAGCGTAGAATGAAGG
Value kind: PBM binding z-score
Response field accepts a number only; no unit should be typed.

Reference set (5 entries):
| Biosequence | PBM binding z-score |
| --- | --- |
| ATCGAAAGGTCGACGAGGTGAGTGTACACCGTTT | 2.45 |
| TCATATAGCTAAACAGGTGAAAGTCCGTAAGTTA | 0.758 |
| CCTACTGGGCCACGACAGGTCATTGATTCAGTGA | 5.51 |
| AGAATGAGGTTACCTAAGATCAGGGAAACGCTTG | 2.93 |
| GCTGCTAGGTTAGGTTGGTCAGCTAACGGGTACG | 0.292 |

Reported PBM binding z-score of `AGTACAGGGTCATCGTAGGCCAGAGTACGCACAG` : 3.74

====

# Tested on: LXRb homodimer (NR concentration 270 nM)
# Experiment notes: PBM binding z-score (relative to random genomic background probes); higher = stronger binding; sequences stand for … in GC…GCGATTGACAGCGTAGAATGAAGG
Please mark label 1 if the recorded PBM binding z-score is equal to or greater than 0.1, and label 0 if it falls below.

| Biosequence | System under test | Label value |
| --- | --- | --- |
| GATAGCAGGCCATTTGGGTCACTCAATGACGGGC | LXRb homodimer (NR concentration 270 nM) | label 0 |

Prompt: Hello, I need to know if `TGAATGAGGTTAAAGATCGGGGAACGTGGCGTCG` has measured PBM binding z-score not below 0.1. Thanks!
Response: label 1

Prompt: Hello, I need to know if `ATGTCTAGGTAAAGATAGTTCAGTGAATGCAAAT` has measured PBM binding z-score not below 0.1. Thanks!
Response: label 0

Prompt: Hello, I need to know if `TAGCCTTGGTCATGGGCCAGTATACCACGCGAAC` has measured PBM binding z-score not below 0.1. Thanks!
Response: label 0

====

# System: LXRb:RXRa (NR concentration 270 nM, RXRa partner concentration 90 nM)
# Experiment notes: PBM binding z-score (relative to random genomic background probes); higher = stronger binding; sequences stand for … in GC…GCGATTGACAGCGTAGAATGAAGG
Value kind: PBM binding z-score
Response field accepts a number only; no unit should be typed.

Reference set (3 entries):
| Biosequence | PBM binding z-score |
| --- | --- |
| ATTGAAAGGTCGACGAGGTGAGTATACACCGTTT | 2.94 |
| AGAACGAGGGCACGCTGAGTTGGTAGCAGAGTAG | -0.113 |
| TCAGACAGGTGAAGGCAACTCAGGTACGCAGTCG | 0.471 |

Reported PBM binding z-score of `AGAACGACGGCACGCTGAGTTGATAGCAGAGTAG` : -0.149

Reported PBM binding z-score of `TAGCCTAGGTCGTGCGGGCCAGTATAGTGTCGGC` : -0.439

Reported PBM binding z-score of `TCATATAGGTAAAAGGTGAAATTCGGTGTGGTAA` : 2.11

Reported PBM binding z-score of `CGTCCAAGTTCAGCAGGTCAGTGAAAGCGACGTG` : 1.53

Reported PBM binding z-score of `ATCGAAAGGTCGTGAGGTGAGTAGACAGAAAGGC` : 2.98

Reported PBM binding z-score of `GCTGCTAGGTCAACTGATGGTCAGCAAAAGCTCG` : 2.12
